Target Of Assay: TIR1·IAA (7-7-7-7-12)
Construct: IAA7 with its PB1 domain replaced by that of IAA12 (one seamless polypeptide: DI, linker, core degron, degron tail from IAA7); GST fusion from E. coli; with SKP1-like protein 1A
Experiment Summary: [3H]IAA saturation radioligand binding
Reported Conditions: labelled compound; 0.01 µM ASK1·TIR1, 0.3 µM GST-AUX/IAA chimera, on ice 1 h; one-site fit; n = 2
pKd: −log10 of the molar value.
Endpoint: pKd

Prompt: Please look at this compound and report its pKd: O=C(O)Cc1c[nH]c2ccccc12 [[3H]IAA]
Completion: ~7.37

====

Target Of Assay: ASK1·TIR1·IAA12 (Arabidopsis thaliana, UniProt Q38830+Q570C0)
Construct: full-length IAA12 as GST fusion from E. coli, GST kept; with SKP1-like protein 1A
Experiment Summary: [3H]IAA saturation radioligand binding
pKd: −log10 of the molar value.
Endpoint: pKd

Prompt: Recall and state the measured pKd for O=C(O)Cc1c[nH]c2ccccc12 [[3H]IAA] .
Completion: ~6.65

====

Target Of Assay: TIR1·IAA (12-12-12-7-12)
Construct: IAA12 with its degron tail replaced by that of IAA7 (one seamless polypeptide: DI, linker, core degron, PB1 from IAA12); GST fusion from E. coli; with SKP1-like protein 1A
Experiment Summary: [3H]IAA saturation radioligand binding
Reported Conditions: labelled compound; 0.01 µM ASK1·TIR1, 0.3 µM GST-AUX/IAA chimera, on ice 1 h; one-site fit; n = 3
pKd: −log10 of the molar value.
Endpoint: pKd

Prompt: Using known records, supply pKd for O=C(O)Cc1c[nH]c2ccccc12 [[3H]IAA]
Completion: ~7.10

====

Target Of Assay: ASK1·TIR1·IAA7 (Arabidopsis thaliana, UniProt Q38825+Q570C0)
Construct: full-length IAA7 as GST fusion from E. coli, GST kept; with SKP1-like protein 1A
Sequence (Q570C0 1-594): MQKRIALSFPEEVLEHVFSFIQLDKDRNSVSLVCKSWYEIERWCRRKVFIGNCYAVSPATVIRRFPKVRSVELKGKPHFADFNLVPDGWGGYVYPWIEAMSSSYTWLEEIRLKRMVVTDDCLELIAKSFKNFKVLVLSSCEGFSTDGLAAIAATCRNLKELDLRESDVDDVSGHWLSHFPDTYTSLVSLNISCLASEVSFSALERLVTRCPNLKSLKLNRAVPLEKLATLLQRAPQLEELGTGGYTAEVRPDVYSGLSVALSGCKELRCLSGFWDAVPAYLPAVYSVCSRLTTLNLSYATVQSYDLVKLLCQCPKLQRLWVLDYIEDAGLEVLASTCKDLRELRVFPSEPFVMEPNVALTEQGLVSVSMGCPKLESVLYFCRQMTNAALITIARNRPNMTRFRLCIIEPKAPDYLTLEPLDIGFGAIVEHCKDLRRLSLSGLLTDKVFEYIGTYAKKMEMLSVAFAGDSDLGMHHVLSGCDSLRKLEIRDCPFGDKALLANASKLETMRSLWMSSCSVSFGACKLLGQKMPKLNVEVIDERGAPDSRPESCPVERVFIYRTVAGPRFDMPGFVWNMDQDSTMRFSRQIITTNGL
Sequence (Q38825 1-243): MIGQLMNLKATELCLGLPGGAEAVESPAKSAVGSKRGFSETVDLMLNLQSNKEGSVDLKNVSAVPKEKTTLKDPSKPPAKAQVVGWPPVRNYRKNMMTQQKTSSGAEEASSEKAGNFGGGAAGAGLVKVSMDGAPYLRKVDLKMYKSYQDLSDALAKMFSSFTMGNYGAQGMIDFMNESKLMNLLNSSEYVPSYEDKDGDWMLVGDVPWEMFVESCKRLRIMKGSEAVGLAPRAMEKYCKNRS
Sequence (Q39255 1-160 partner): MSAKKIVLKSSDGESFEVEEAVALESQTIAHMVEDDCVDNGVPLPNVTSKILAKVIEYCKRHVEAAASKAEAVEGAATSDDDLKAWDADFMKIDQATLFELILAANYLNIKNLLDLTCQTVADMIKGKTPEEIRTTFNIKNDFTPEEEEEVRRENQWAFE
Experiment Summary: [3H]IAA saturation radioligand binding
pKd: −log10 of the molar value.
Endpoint: pKd

Prompt: Tell us which pKd value is on record for O=C(O)Cc1c[nH]c2ccccc12 [[3H]IAA]
Completion: ~7.70
